Reported values of melting point for individual entries
MEASURED_ENDPOINT: melting point

> print(dat)
                                   compound  measured.endpoint             result
1  Cn1c(=O)c(-c2ccccc2Cl)cc2cnc(NC3CC4CCC(C3)N4Cc3ccccc3)nc21 (stereo not shown)      melting point  147.4 to 153.8 °C
2  O=c1c(-c2ccccc2Cl)cc2cnc(NC3C4COCC3CN(Cc3ccccc3)C4)nc2n1-c1ccc(F)cc1 (stereo not shown)      melting point  107.4 to 110.4 °C
3  CCOC(=O)N1CC2C(C1)C2Nc1ncc2cc(-c3ccccc3Cl)c(=O)n(C)c2n1 (stereo not shown)      melting point  118.7 to 125.2 °C
4  Cn1c(=O)c(-c2ccccc2Cl)cc2cnc(NC3CC4CCCC(C3)N4Cc3ccccc3)nc21 (stereo not shown)      melting point      76.9 to 82 °C
